# Measured Target: Carbonic anhydrase 9 (Homo sapiens, UniProt Q16790)
# Assay Notes: Inhibition of human CA9 pre-incubated for 15 mins by stopped flow CO2 hydrase assay
Result Type: pKi
Keep in mind that pKi stands for -log10 of concentration in molar terms.

Return pKi (reported value) for this molecule: Cc1cn([C@H]2C[C@H](n3cc(COC(=O)c4ccc(Cl)c(S(N)(=O)=O)c4)nn3)[C@@H](CO)O2)c(=O)[nH]c1=O
6.62

---

# Measured Target: Telomerase reverse transcriptase (Homo sapiens) (UniProt O14746)
# Sequence (O14746 whole entry): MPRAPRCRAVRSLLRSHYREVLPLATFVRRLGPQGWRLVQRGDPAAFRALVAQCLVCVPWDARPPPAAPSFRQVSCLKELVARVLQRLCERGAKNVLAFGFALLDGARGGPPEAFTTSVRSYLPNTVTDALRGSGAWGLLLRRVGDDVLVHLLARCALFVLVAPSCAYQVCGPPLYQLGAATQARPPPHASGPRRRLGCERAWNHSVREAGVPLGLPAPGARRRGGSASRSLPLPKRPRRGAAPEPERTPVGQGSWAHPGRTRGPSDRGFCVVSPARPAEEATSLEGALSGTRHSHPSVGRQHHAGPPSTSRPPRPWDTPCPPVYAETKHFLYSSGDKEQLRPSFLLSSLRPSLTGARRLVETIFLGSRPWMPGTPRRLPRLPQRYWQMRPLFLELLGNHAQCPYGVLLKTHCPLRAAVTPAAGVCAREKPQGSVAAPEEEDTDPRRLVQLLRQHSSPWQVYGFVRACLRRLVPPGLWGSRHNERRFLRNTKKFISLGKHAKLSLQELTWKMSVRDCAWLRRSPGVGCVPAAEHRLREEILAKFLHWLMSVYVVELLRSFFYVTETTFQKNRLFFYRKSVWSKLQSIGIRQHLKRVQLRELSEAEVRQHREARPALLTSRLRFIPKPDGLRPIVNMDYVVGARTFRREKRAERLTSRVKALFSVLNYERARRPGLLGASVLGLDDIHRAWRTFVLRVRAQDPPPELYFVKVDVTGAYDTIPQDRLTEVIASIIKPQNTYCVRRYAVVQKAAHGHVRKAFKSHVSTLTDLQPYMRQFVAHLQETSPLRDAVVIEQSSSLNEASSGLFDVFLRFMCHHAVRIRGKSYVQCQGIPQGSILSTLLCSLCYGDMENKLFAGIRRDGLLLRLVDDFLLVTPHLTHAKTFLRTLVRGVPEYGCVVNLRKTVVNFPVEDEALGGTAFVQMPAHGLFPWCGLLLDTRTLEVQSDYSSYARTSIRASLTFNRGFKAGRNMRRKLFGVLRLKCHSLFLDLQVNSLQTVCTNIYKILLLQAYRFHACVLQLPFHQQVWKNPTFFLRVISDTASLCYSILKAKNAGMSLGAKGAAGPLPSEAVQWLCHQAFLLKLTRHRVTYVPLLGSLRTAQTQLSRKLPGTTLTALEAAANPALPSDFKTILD
# Assay Notes: Inhibition of telomerase in human PC3 cells at 20 uM incubated for 48 hrs by TRAP assay
# Format: cell-based
# Experimental Parameters: PC-3
Activity calls are given as the source filed them. The calls are words filed in the database; no cut-off is given here.
The reply should name one outcome from t for active, f for inactive

Recorded call for Cc1cn([C@H]2C[C@H](n3cc(CNC(=O)c4ccc(S(N)(=O)=O)cc4)nn3)[C@@H](CO)O2)c(=O)[nH]c1=O ?
f

Recorded call for Cc1cn([C@H]2C[C@H](n3cc(COC(=O)c4ccc(S(N)(=O)=O)cc4)nn3)[C@@H](CO)O2)c(=O)[nH]c1=O ?
f

Recorded call for Cc1cn([C@H]2C[C@H](n3cc(C[Se]c4ccc(NC(=S)Nc5cccc(S(N)(=O)=O)c5)cc4)nn3)[C@@H](CO)O2)c(=O)[nH]c1=O ?
t

Recorded call for Cc1cn([C@H]2C[C@H](n3cc(COc4ccc(S(N)(=O)=O)cc4)nn3)[C@@H](CO)O2)c(=O)[nH]c1=O ?
t

Numbers sourced from ChEMBL document CHEMBL4610115.
